Target: histamine H3 receptor (Homo sapiens, UniProt Q9Y5N1)
Construct: expressed in transfected cells; host or cells: CHO K1 cells (pSwitch/pGene GeneSwitch system, mifepristone-induced), clone 3H3; membranes
Sequence (Q9Y5N1 whole entry): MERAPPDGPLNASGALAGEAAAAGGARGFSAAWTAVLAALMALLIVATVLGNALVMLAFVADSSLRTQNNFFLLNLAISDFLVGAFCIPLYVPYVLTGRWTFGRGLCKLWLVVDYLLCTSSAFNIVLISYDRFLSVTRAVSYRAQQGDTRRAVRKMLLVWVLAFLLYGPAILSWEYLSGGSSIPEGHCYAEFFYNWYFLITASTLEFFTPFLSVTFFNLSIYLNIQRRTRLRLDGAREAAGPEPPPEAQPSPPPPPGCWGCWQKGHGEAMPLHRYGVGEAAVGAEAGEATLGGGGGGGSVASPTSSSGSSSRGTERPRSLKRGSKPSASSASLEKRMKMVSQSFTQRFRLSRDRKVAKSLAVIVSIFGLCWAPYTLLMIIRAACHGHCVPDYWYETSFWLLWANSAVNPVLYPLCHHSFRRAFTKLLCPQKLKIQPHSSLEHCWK
Test: Histamine H3 functional antagonist assay (method B)
Assay type: biochemical
Details: [35S]-GTPγS SPA, membrane prepared from cultured H3 cells, histamine at EC80, averages of a number of experiments, read-out: functional pKi (fpKi), antagonism (converted)
Where a name gives a salt, the structure may show the parent alone.

# Molecule, Ki
records = [
    ("Cc1noc(-c2ccc(N3CC[C@H](C(=O)N4CCCN(C5CCC5)CC4)C3)cc2)n1 (single isomer, unassigned) [Example E18B, hydrochloride]", "≤ 316 pM"),
    ("CC(C)N1CCN(C(=O)[C@H]2CCN(c3ccc(C#N)cc3)C2)CC1 [Example E36, hydrochloride]", "≤ 316 pM"),
    ("Cc1noc(-c2ccc(N3CC[C@H](C(=O)N4CCCN(C5CCC5)CC4)C3)c(F)c2)n1 (single isomer, unassigned) [Example E20B, hydrochloride]", "≤ 316 pM"),
    ("CC(C)N1CCN(C(=O)[C@H]2CCN(c3ccc(-c4nnc(-c5ccccc5)o4)cc3)C2)CC1", "≤ 316 pM"),
    ("CC(=O)c1ccc(N2CC[C@@H](C(=O)N3CCCN(C4CCC4)CC3)C2)cc1 (single isomer, unassigned) [Example E21A, hydrochloride]", "< 10000 pM"),
    ("CC(C)N1CCN(C(=O)[C@H]2CCN(c3ccc(-c4ccno4)cc3)C2)CC1", "≤ 316 pM"),
]

###

Reported Ki values for a set of compounds
Target: histamine H3 receptor (Homo sapiens, UniProt Q9Y5N1)
Construct: expressed in transfected cells; host or cells: CHO K1 cells (pSwitch/pGene GeneSwitch system, mifepristone-induced), clone 3H3; membranes
Assay: Histamine H3 functional antagonist assay (method B)
Format: biochemical
Settings: [35S]-GTPγS SPA, membrane prepared from cultured H3 cells, histamine at EC80, averages of a number of experiments, read-out: functional pKi (fpKi), antagonism (converted)
Assay endpoint: Ki

# Compound, Subject of test, Readout value
records = [
    ("Cc1nnc(-c2ccc(N3CC[C@H](C(=O)N4CCN(C(C)C)CC4)C3)cc2)o1 [Example E30]", "histamine H3 receptor (Homo sapiens, UniProt Q9Y5N1)", "≤ 0.316 nM"),
    ("Cc1nc(-c2ccc(N3CC[C@H](C(=O)N4CCN(C(C)C)CC4)C3)cc2)co1 [Example E32A]", "histamine H3 receptor (Homo sapiens, UniProt Q9Y5N1)", "≤ 0.316 nM"),
    ("O=C([C@H]1CCN(c2ccc(C(F)(F)F)nc2)C1)N1CCN(C2CCC2)CC1 [Example E12]", "histamine H3 receptor (Homo sapiens, UniProt Q9Y5N1)", "≤ 0.316 nM"),
    ("CCC(CC)N1CCN(C(=O)[C@H]2CCN(c3ccc(C(C)=O)cc3)C2)CC1 [Example E8]", "histamine H3 receptor (Homo sapiens, UniProt Q9Y5N1)", "≤ 0.316 nM"),
]

###

Molecular target: histamine H3 receptor (Homo sapiens, UniProt Q9Y5N1)
Construct: expressed in transfected cells; host or cells: CHO K1 cells (pSwitch/pGene GeneSwitch system, mifepristone-induced), clone 3H3; membranes
Assay: Histamine H3 functional antagonist assay (method A)
Assay type: biochemical
Conditions: [35S]-GTPγS SPA, membrane prepared from cultured H3 cells, histamine at EC80, averages of a number of experiments, read-out: functional pKi (fpKi), antagonism (converted)
Description: A membrane preparation containing histamine H3 receptors may be prepared in accordance with the following procedures: (i) Generation of Histamine H3 Cell Line […] 10-14 days post selection 10 nM Mifepristone (InVitrogen), was added to the culture medium to induce the expression of the receptor. […] Receptor bound antibody was detected by incubation of the cells for 60 minutes on ice with a goat anti rabbit antibody, conjugated with Alexa 488 fluorescence marker (Molecular Probes). […]
Counter-ions that a name gives are not always drawn.
Assay endpoint: Ki

# Compound, Readout value
measured = [
    ("O=C([C@@H]1CCN(c2ccc(C(F)(F)F)nc2)C1)N1CCCN(C2CCC2)CC1 (single isomer, unassigned) [Example E17A, hydrochloride]", "< 0.316 nM"),
    ("O=C(C1CCN(c2ccnc(C(F)(F)F)c2)C1)N1CCCN(C2CCC2)CC1 (racemic) [Example E23, hydrochloride]", "< 0.316 nM"),
    ("O=C(C1CCN(c2ccc(C(F)(F)F)nc2)C1)N1CCCN(C2CCC2)CC1 (racemic)", "< 0.316 nM"),
    ("CC(C)N1CCCN(C(=O)C2CCN(c3ccc(C(F)(F)F)nc3)C2)CC1 (racemic) [Example E22, hydrochloride]", "< 10 nM"),
    ("O=C([C@H]1CCN(c2ccc(C(F)(F)F)nc2)C1)N1CCCN(C2CCC2)CC1 (single isomer, unassigned) [Example E17B, hydrochloride]", "< 0.316 nM"),
]

###

Target: histamine H3 receptor (Homo sapiens)
Construct: expressed in transfected cells; host or cells: CHO K1 cells (pSwitch/pGene GeneSwitch system, mifepristone-induced), clone 3H3; membranes
Test: Histamine H3 functional antagonist assay (method B)
Type: biochemical
Settings: [35S]-GTPγS SPA, membrane prepared from cultured H3 cells, histamine at EC80, averages of a number of experiments, read-out: functional pKi (fpKi), antagonism (converted)
Counter-ions that a name gives are not always drawn.

# Compound, Ki
measured = [
    ("Cc1nnc(-c2ccc(N3CC[C@H](C(=O)N4CCCN(C(C)C)CC4)C3)cc2)o1 [Example E47, hydrochloride]", "≤ 316 pM"),
    ("Cc1noc(-c2ccc(N3CC[C@H](C(=O)N4CCN(C(C)C)CC4)C3)c(F)c2)n1", "≤ 316 pM"),
    ("CCc1noc(-c2ccc(N3CC[C@H](C(=O)N4CCN(C(C)C)CC4)C3)cc2)n1 [Example E49, hydrochloride]", "≤ 316 pM"),
    ("Cc1noc(-c2ccc(N3CC[C@H](C(=O)N4CCN(C(C)C)CC4)C3)cc2)n1", "≤ 316 pM"),
    ("Cc1noc(-c2ccc(N3CC[C@@H](C(=O)N4CCCN(C5CCC5)CC4)C3)c(F)c2)n1 (single isomer, unassigned) [Example E20A, hydrochloride]", "< 10000 pM"),
]
